Taken from patent US8338611B2.

target: cloned human kappa opioid receptor (Homo sapiens); construct: expressed in transfected cells; assay: GTP-γ-S Binding Assay, kappa opioid receptor (Table 1: Receptor Binding); assay type: biochemical; details: membranes from cells expressing cloned human kappa receptor
Sequence (P41145 whole entry): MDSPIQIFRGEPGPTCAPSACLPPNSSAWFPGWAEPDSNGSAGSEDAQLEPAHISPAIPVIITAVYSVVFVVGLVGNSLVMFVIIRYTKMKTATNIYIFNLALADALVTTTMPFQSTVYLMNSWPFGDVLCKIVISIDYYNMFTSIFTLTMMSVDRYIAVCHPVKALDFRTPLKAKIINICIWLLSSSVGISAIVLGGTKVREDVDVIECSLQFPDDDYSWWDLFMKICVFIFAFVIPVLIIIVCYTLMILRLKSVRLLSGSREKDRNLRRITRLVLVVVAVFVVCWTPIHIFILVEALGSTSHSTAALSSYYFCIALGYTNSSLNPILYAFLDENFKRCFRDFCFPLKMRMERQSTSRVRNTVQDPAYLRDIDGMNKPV
For each entry below, report its log10 Ki value.
Could you please treat all values as log10 of Ki in nM?

Data request: Return reported log10 Ki; argument: CC(=O)Oc1ccc(Oc2ccc(CCNCc3ccccc3)cc2)cc1
Data returned: 3.21

Data request: Return reported log10 Ki; argument: NC(=O)c1ccc(S(=O)(=O)c2ccc(CNCCc3ccccc3)cc2)cc1
Data returned: 3.01

Data request: Return reported log10 Ki; argument: NC(=O)c1ccc(Nc2ccc(CCNCc3ccccc3)cc2)nc1
Data returned: 2.88

Data request: Return reported log10 Ki; argument: CC(=O)Nc1ccc(Oc2ccc(CCNCc3cccs3)cc2)cc1
Data returned: 2.18

Data request: Return reported log10 Ki; argument: CC(=O)Nc1ccc(Oc2ccc(CCNCCCc3ccccc3)cc2)cc1
Data returned: 2.86

Data request: Return reported log10 Ki; argument: NCCc1ccc(Nc2ccc(C(N)=O)cn2)cc1
Data returned: 3.01

* * *

Molecular target: cloned human delta opioid receptor (Homo sapiens)
Construct: expressed in transfected cells
Sequence (P41143 whole entry): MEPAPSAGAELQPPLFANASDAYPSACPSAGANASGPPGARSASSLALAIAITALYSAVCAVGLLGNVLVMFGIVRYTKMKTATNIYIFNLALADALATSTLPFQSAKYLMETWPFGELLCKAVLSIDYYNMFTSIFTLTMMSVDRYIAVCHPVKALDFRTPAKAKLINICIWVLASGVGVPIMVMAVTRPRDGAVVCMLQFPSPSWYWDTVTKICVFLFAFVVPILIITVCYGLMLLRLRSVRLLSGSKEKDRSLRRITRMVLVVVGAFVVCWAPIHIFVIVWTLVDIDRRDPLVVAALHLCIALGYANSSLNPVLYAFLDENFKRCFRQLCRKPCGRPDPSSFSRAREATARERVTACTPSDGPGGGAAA
Assay: GTP-γ-S Binding Assay, delta opioid receptor (Table 1: Receptor Binding)
Type: biochemical
Conditions: membranes from cells expressing cloned human delta receptor
Procedure: The functional antagonist potency (Kb) of the sample compounds was determined using the GTPγS binding assay. GTPgS-based functional assays provide an in vitro measure of the activity of opioid agonists and antagonists. Opioid reference compounds or test compound are incubated with membrane homogenate from cells expressing the cloned human mu, kappa or delta opioid receptor and radiolabeled [35S]GTPgS. […]
Outcome Measure: Ki (nM)
Output spec: scalar in nM, unitless text.

Data request: Return reported Ki; argument: CC(C)CCNCc1ccc(Sc2ccc(C(N)=O)cn2)cc1
Data returned: 3520

Data request: Return reported Ki; argument: NC(=O)c1ccc(S(=O)(=O)c2ccc(CNCCc3ccccc3)cc2)cc1
Data returned: 714

Data request: Return reported Ki; argument: CC(=O)Nc1ccc(Oc2ccc(CCNCCC3CCCCC3)cc2)cc1
Data returned: 260

Data request: Return reported Ki; argument: NCCc1ccc(Nc2ccc(C(N)=O)cn2)cc1
Data returned: 270

Data request: Return reported Ki; argument: CC(=O)Nc1ccc(Oc2ccc(CCNC(=O)OC(C)(C)C)cc2)cc1
Data returned: 4020

Data request: Return reported Ki; argument: CC(=O)Nc1ccc(Oc2ccc(CCN)cc2)cc1
Data returned: 2510

Data request: Return reported Ki; argument: CC(=O)Nc1ccc(Oc2ccc(CCNCCCc3ccccc3)cc2)cc1
Data returned: 62.5

Data request: Return reported Ki; argument: NC(=O)c1ccc(Nc2ccc(CCNCC3CCCCC3)cc2)nc1
Data returned: 278

* * *

For each entry below, report its log10(Ki) value.
molecular target: cloned human mu opioid receptor (Homo sapiens, UniProt P35372); construct: expressed in transfected cells; experiment: GTP-γ-S Binding Assay, mu opioid receptor (Table 1: Receptor Binding); type: biochemical; settings: membranes from cells expressing cloned human mu receptor; read-out: Receptor Binding (Ki, nM) Mu
Sequence (P35372 whole entry): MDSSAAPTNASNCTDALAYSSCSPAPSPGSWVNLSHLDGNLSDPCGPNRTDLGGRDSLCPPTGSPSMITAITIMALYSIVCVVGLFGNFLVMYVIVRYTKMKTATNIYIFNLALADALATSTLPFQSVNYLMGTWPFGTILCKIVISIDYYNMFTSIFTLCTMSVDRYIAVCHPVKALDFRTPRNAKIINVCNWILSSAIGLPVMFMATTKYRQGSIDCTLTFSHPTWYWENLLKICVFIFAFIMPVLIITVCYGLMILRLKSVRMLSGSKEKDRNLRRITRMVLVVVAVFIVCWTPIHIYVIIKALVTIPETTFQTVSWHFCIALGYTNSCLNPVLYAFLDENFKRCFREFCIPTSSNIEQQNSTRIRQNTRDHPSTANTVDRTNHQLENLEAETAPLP
Could you please treat all values as log10 of Ki in nM?

Data request: Return reported log10(Ki); argument: CC(C)CCNCc1ccc(Sc2ccc(C(N)=O)cn2)cc1 [Example 13]
Data returned: 2.75

Data request: Return reported log10(Ki); argument: NC(=O)c1ccc(Nc2ccc(CCNCC3CCCCC3)cc2)nc1 [Example 18]
Data returned: 1.69

Data request: Return reported log10(Ki); argument: CC(=O)Nc1ccc(Oc2ccc(CCNCc3cccc(Cl)c3)cc2)cc1 [Example 37]
Data returned: 3.24

Data request: Return reported log10(Ki); argument: CC(=O)c1ccc(Oc2ccc(CCNCc3ccccc3)cc2)cc1 [Example 5]
Data returned: 3.12

Data request: Return reported log10(Ki); argument: NC(=O)c1ccc(Sc2ccc(CNCC3CC3)cc2)nc1 [Example 10]
Data returned: 2.86

Data request: Return reported log10(Ki); argument: CC(=O)Nc1ccc(Oc2ccc(CCNCCCc3ccccc3)cc2)cc1 [Example 29]
Data returned: 0.70

Data request: Return reported log10(Ki); argument: CC(=O)Nc1ccc(Oc2ccc(CCNC(=O)OC(C)(C)C)cc2)cc1 [Example 24]
Data returned: 2.30

Data request: Return reported log10(Ki); argument: CC(=O)Nc1ccc(Oc2ccc(CCNCC(C)C)cc2)cc1 [Example 38]
Data returned: 3.24

Data request: Return reported log10(Ki); argument: NC(=O)c1ccc(Nc2ccc(CNCc3ccccc3)cc2)nc1 [Example 20]
Data returned: 1.86

Data request: Return reported log10(Ki); argument: CC(=O)Nc1ccc(Oc2ccc(CCNCCC3CCCCC3)cc2)cc1 [Example 30]
Data returned: 1.26

Data request: Return reported log10(Ki); argument: NC(=O)c1ccc(S(=O)(=O)c2ccc(CNCCc3ccccc3)cc2)cc1 [Example 14]
Data returned: 1.94

Data request: Return reported log10(Ki); argument: CC(=O)Nc1ccc(Oc2ccc(CCNCc3cccs3)cc2)cc1 [Example 28]
Data returned: 1.43

Data request: Return reported log10(Ki); argument: NC(=O)c1ccc(Nc2ccc(CCNCc3ccccc3)cc2)nc1 [Example 17]
Data returned: 3.13

Data request: Return reported log10(Ki); argument: CC(=O)Oc1ccc(Oc2ccc(CCNCc3ccccc3)cc2)cc1 [Example 6]
Data returned: 2.36

Data request: Return reported log10(Ki); argument: NC(=O)c1ccc([S+]([O-])c2ccc(CNCCc3ccccc3)cc2)cc1 (centres unmarked) [Example 15]
Data returned: 2.47

Data request: Return reported log10(Ki); argument: CC(=O)Nc1ccc(Oc2ccc(CCNCc3ccccc3C)cc2)cc1 [Example 40]
Data returned: 2.96
